Test system: IGROV-1
assay.details: NCI tumour cell line growth inhibition, 48 h
Activity calls are given as the source filed them. Rule as the data show it: active = GI50 up to about 1.1 µM and inactive = higher.
Choose the fitting class; nothing outside active, inactive is accepted.

IN: Which result was noted for this compound in the test: Cn1c(=O)c2c(nc3[nH]c(=O)c(Br)cn32)n(C)c1=O
OUT: inactive

IN: # fetch the recorded call for COc1cc2c(cc1OC)C(Cc1ccc(Oc3cc(CC4c5cc(OC)c(OC)cc5CCN4C)ccc3O)cc1)N(C)CC2 (stereo unspecified) here
OUT: inactive

IN: Tell me the assay call for CS/C(=N/C(=O)c1ccccc1Cl)SCCS/C(=N\C(=O)c1ccccc1Cl)SC please.
OUT: inactive

IN: Write down the call the test reported for this compound. Item: CCOC(=O)NC(C(F)(F)F)(C(F)(F)F)P(=O)(OCC(C)C)OCC(C)C
OUT: inactive

IN: Any idea what this test logged for CC(C)CC(NC(=O)C(Cc1ccccc1)NC(=O)[C@H]1CC[C@H](NC(=O)C(Cc2ccc(OC(C)(C)C)cc2)NC(=O)OC(C)(C)C)C1)C(N)=O (stereo partly specified) ?
OUT: inactive

IN: Status in this test for Cc1ccc(/C=C/C(=O)c2sc(-c3cccnc3)nc2C)cc1 ?
OUT: inactive

IN: Please let me know the test result on file for COc1ccc(CN2C(=O)C(=O)N(C)C2=O)c2ccccc12 .
OUT: inactive

IN: Could you kindly confirm the outcome this assay logged for NC1=NS(=O)(=O)Nc2nc(-c3cccs3)[nH]c21 ?
OUT: inactive

IN: Could you kindly confirm the outcome this assay logged for COP(=O)(/C=C/c1cc(C(=O)OCc2ccccc2)n(S(=O)(=O)c2ccccc2)c1)OC ?
OUT: inactive

IN: // return assay outcome for Cc1ccc(NCCO)cc1
OUT: inactive

IN: How did this test come out for Cc1occc1/C(S)=N\c1ccc(Cl)c(C(=O)OCC(F)(F)F)c1 ?
OUT: inactive

IN: I'd appreciate the recorded outcome for CC1(O)CC2(O)C=CC3=C(C(=O)c4cccc(O)c4C3=O)C2(O)C(=O)C1O (stereo unspecified) from this test.
OUT: inactive

IN: Hello, I am checking results. What call was entered for Cc1ccc(C(=O)O)c(/C=C2\Cc3ccc(C)cc3C2=O)c1 ?
OUT: inactive

IN: Write down the call the test reported for this compound. Item: CCOc1cc2c(cc1O)/C(=N\OC)C[C@@H]1[C@@H]2CC[C@]2(C)[C@@H](O)CC[C@@H]12
OUT: active

IN: What outcome does the record of this test show for CC1=NN(c2ccc(S(=O)(=O)O)cc2)C2(C1)SCC(=O)N2c1nc2ccccc2s1 (stereo unspecified) ?
OUT: inactive

IN: Test call, this compound: CNC(=O)NCCCCC(NC(=O)OCc1ccccc1)C(=O)OCc1ccccc1 (stereo unspecified)
OUT: inactive

IN: Answer briefly: the call reported for CC1c2ccccc2Cn2cc3c(c21)C(=O)c1cccc(OP(=O)(O)OCc2ccccc2)c1C3=O (stereo unspecified) in this assay.
OUT: inactive

IN: What did the test return for CCN(CC)c1nc(N(C)C)c2ccccc2n1 ?
OUT: inactive

IN: For CC(=O)NC(C)(C)C1CCC(C)=C(c2ccccc2)C1 (stereo unspecified) , what call appears in the results of this test?
OUT: inactive

IN: Call for entry c1ccc2c(c1)nnn1c3cnccc3nc21 :
OUT: inactive

IN: // outcome(item) with item = O=C1Nc2ccccc2C1=Nc1ccc(S(=O)(=O)Nc2nccs2)cc1
OUT: inactive

----------
Tested on: NCI/ADR-RES
assay.details: NCI tumour cell line growth inhibition, 48 h
Calls of active or inactive are those of the source. Rule as the data show it: active = GI50 up to about 1.1 µM and inactive = higher. Starred links: 1 amine or outer side, 2 acyl side, 3 side chain; linkers in the order of their positions; H or OH if unused. Residues, ends and D or L forms follow the SMILES beside them. *: point of attachment. γGlu = O=C(O)[CH](CCC(=O)[*:2])N[*:1]; NHOH = ON*
Just give me one of these, please: true = active, false = inactive

IN: # fetch the recorded call for CCOc1cc2c(cc1O)/C(=N\OC)C[C@@H]1[C@@H]2CC[C@]2(C)[C@@H](O)CC[C@@H]12 here
OUT: true

IN: Hi, do you know how CC1=C(O)C(=O)c2ccccc2C1=O came out in this test?
OUT: false

IN: How did this test come out for CC1OC(OC2C(OC(=O)[C@]34CCC(C)(C)C[C@H]3C3=CC[C@@H]5[C@@]6(C)CC[C@H](OC7OC(CO)C(O)C(O)C7OC7OC(CO)C(O)C(O)C7O)C(C)(C)[C@@H]6CC[C@@]5(C)[C@]3(C)CC4)OCC(O)C2O)C(O)C(O)C1OC1OCC(O)C(O)C1O (stereo not given in full) ?
OUT: false

IN: So what was the verdict on CCC(CCC(C)C1CCC2C3CC=C4CC(OC5OC(CO)C(O)C(O)C5O)CCC4(C)C3CCC12C)C(C)C (stereo not given) in this test?
OUT: false

IN: For COc1cc(C2c3cc4c(cc3[C@@H](Nc3cccc(O)c3)C3COC(=O)[C@H]23)OCO4)cc(OC)c1O (stereo not given in full) , what call appears in the results of this test?
OUT: false

IN: # fetch the recorded call for O/N=N\c1nc(-c2cccnc2)nc2ccccc12 here
OUT: false

IN: Any idea what this test logged for O=C1C(O)=C(C(CCc2ccccc2)C2=C(O)C(=O)c3ccccc3C2=O)C(=O)c2ccccc21 ?
OUT: false

IN: Hi, do you know how O=C1CSC(/C(=C\c2ccc(Cl)cc2)c2nc3ccccc3[nH]2)=N1 came out in this test?
OUT: false

IN: // return assay outcome for CC1=CC(=O)[C@@H](O)[C@]2(C)[C@H]3[C@@]4(O)OC[C@]35[C@H]([C@@H](C)[C@H]4O)[C@@H](O)C(=O)O[C@@H]5C[C@@H]12
OUT: false

IN: Call for entry CC1(C)N=C(N)N=C(N)N1c1cccc(Cl)c1 :
OUT: true

IN: What did the test return for CC(C)C1CC(CO)(CNc2cc(Cl)nc(N)n2)C1 (stereo not given) ?
OUT: false

IN: // return assay outcome for CC(=O)N[C@@H](Cc1ccc(O)cn1)C(=O)NCc1ccc2c(c1)OCO2
OUT: false

IN: // param item: C=C(C)C(=O)OC1CCC2(C)C(CCC3C2CCC2(C)C(c4ccc(=O)oc4)CC4OC432)C1 (stereo not given) ; yields the recorded call
OUT: false

IN: Entry Cc1ccc(OCC2OC(n3cnc4nc(Nc5ccc(Cl)c(Cl)c5)nc(Cl)c43)CC2Oc2ccc(C)cc2)cc1 (stereo not given) : call = ?
OUT: false

IN: Please indicate how the test categorized Cc1cn(CC2=NCC(C)N2)c(=O)[nH]c1=O (stereo not given) .
OUT: false

IN: // param item: NC(=O)c1cc2cc(Cl)cc(Cl)c2o/c1=N\c1ccc(F)cc1 ; yields the recorded call
OUT: false

IN: Record lookup: outcome of this test for CN(C)CCNC(=O)c1cccc2c(NC(CCC(N)=O)C(=O)O)c3ccccc3nc12 (stereo not given) ?
OUT: false

IN: Per the assay record, what outcome was assigned to O=C(Nc1nc2ccccc2s1)c1cc([N+](=O)[O-])ccc1Cl ?
OUT: false

IN: Recorded test call requested for Cc1ccc(C(=O)/C=C2\Nc3ccccc3S\C2=N\CS(=O)(=O)c2ccc(C)cc2)cc1
OUT: false

IN: Hi team, can someone confirm the assay call for O=C(Cn1c(C(=O)/C=C/c2ccc(Cl)cc2)nc2ccccc21)c1ccc(Cl)cc1 ?
OUT: false

IN: Any idea what this test logged for COC(=O)Cc1cccc2c1CCC2=O ?
OUT: false

IN: Short answer needed: outcome of this test for COCn1c(=O)n(C)c(=O)c2c1nc1c(c(=O)n(C)c(=O)n1COC)[n+]2[O-] ?
OUT: false

IN: Please share the test call associated with CCN(/C=C1/C(=O)C(c2ccccc2)N(c2ccccc2)C1=O)CC (stereo not given) .
OUT: false

IN: Assay result, entry COc1ccc2cc(NC(=O)N/N=C\c3ccc([N+](=O)[O-])cc3)ccc2c1 — outcome?
OUT: false

IN: Fill in: this test's call for CCCCCCCCCCCCCCCCCCNc1ccn(C2OC(COP(=O)(O)OCC(COP(=O)(O)OCC3OC(n4cc(C)c(=O)[nH]c4=O)CC3N=[N+]=[N-])OCCCCCCCCCCCCCCCCCC)C(O)C2O)c(=O)n1 (stereo not given) is ___
OUT: false

IN: Field: outcome | Entry: CC(=O)[C@@]1(O)CC[C@H]2[C@@H]3C[C@H](C)C4=CC(=O)CC[C@]4(C)[C@H]3[C@@H](O)C[C@@]21C
OUT: false

IN: Write down the call the test reported for this compound. Item: COc1cc(OC)c2c(=O)c(OC)c(-c3ccc4c(c3)OCO4)oc2c1
OUT: false

IN: Recorded test call requested for CN1B(c2ccccc2)N(C)C(=O)N(C)C1=O
OUT: false

IN: Hi, sorry to bother you, what did the test record for COc1cc([C@@H]2c3cc(O)c(OC)cc3C=C(C(N)=O)[C@H]2C(N)=O)ccc1O ?
OUT: false

IN: Dear all, I need the recorded test outcome for CCOC(=O)CNC(=O)C(CCC(=O)NO)NC(=O)CCC(N)C(=O)O (stereo not given) (γGlu-Glu(NHOH)-Gly-OEt; configuration not given here) , thank you.
OUT: false

IN: Please indicate how the test categorized C[C@H](CCCOS(C)(=O)=O)[C@H]1CC[C@H]2[C@@H]3CC[C@@H]4C[C@H](OS(C)(=O)=O)CC[C@]4(C)[C@H]3CC[C@]12C .
OUT: false

IN: Name the outcome recorded for O=C1c2cc(CCl)sc2C(=O)c2ccsc21 in the assay.
OUT: true

IN: // return assay outcome for C/C(=N\NC(N)=O)C(CN1CCOCC1)C(c1ccccc1)c1c(O)c2ccccc2oc1=O (stereo not given)
OUT: false

IN: GET /call?item= CCCCCCCSCC(O)COC(c1ccccc1)(c1ccccc1)c1ccccc1 (stereo not given) returns the recorded outcome of this test.
OUT: false

IN: Record lookup: outcome of this test for COC(=O)CCCc1c(-c2[nH]c3ccccc3c2CCCC(=O)OC)[nH]c2ccccc12 ?
OUT: false
